For each entry below, report its growth value.
System: SNB-75 CNS
Experiment: NCI-60 one-dose screen, 48 h (100 = growth as untreated, 0 = no growth, -100 = all killed)
Details: 10 µM unless noted
This is part of a sample that, as a whole, favours compounds with a hit. Of some 83,000 tested, about 20% had one in any assay. Active and inactive are the calls of the source. The calls were made as follows: active = growth percent below 10; inactive = the rest.

Ask | Field request: growth | item: CNC(=O)c1cccc2cc(Oc3ccnc4cc(OCC5(N)CC5)c(OC)cc34)ccc12
Reply | 26.7% (inactive)

Ask | Field request: growth | item: COc1ccc2c(c1)cn1c3ccc(O)cc3nc(N)c21
Reply | 15% (inactive)

Ask | Field request: growth | item: Cc1cccc(NC(=O)[C@@H]2c3ccccc3C(=O)N(c3ccc(Cl)cc3)[C@H]2c2ccc(Cl)cc2)n1
Reply | 68.5% (inactive)

Ask | Field request: growth | item: CCCC(=O)OCC1OC(n2cnc3c(=S)nc(N)[nH]c32)C(OC(=O)CCC)C1OC(=O)CCC (stereo not drawn)
Reply | 34.8% (inactive)

Ask | Field request: growth | item: O=C(Nc1cnn2ccc(N3CCC[C@@H]3c3cc(F)ccc3F)nc12)N1CC[C@H](O)C1
Reply | 29.1% (inactive)

Ask | Field request: growth | item: CN1CCN(c2ccc(OC(F)(F)F)c(Nc3ncc4c(n3)-c3c(c(C(N)=O)nn3CCO)CC4)c2)CC1
Reply | 7.72% (active)

Ask | Field request: growth | item: Clc1ccc(Nc2nccc(Nc3ccc4[nH]ncc4c3)n2)cc1
Reply | 67.6% (inactive)

Ask | Field request: growth | item: COC(=O)[C@]12CC[C@@H](C)[C@H](C)[C@@H]1C1=CC[C@@H]3[C@@]4(C)C[C@@H](OC(=O)/C=C/c5ccccc5)[C@H](O)[C@@](C)(CO)[C@@H]4[C@H](O)C[C@@]3(C)[C@]1(C)CC2
Reply | 44.1% (inactive)

----------
System: OVCAR-4 ovarian
Test: NCI-60 one-dose screen, 48 h (100 = growth as untreated, 0 = no growth, -100 = all killed)
Conditions: 10 µM unless noted
This is part of a sample that, as a whole, favours compounds with a hit. Of some 83,000 tested, about 20% had one in any assay.
The threshold is 50%. Values of growth beneath it are tagged 1; values meeting or exceeding it are tagged 0.

Ask | hey, is growth for COc1cc(Nc2ncc(F)c(Nc3ccc4c(n3)N(COP(=O)(O)O)C(=O)C(C)(C)O4)n2)cc(OC)c1OC lower than 50% or not?
Reply | 1

Ask | hey, is growth for O=C1/C(=C\c2cccc(OCCCCCOc3ccc(Cl)cc3)c2)N=C2SCCCN12 lower than 50% or not?
Reply | 1

Ask | hey, is growth for CN1CCN(c2nc(C3=C(c4c[nH]c5ccccc45)C(=O)NC3=O)c3ccccc3n2)CC1 lower than 50% or not?
Reply | 0

Ask | hey, is growth for O=C(Nc1nc2cccc(-c3ccc(CN4CCS(=O)(=O)CC4)cc3)n2n1)C1CC1 lower than 50% or not?
Reply | 0

Ask | hey, is growth for O=c1[nH]c([C@@H]2CCCN2)nc2c1oc1ccc(Cl)cc12 lower than 50% or not?
Reply | 0

Ask | hey, is growth for Cc1cc(Nc2cc(N3CCN(C)CC3)nc(/C=C/c3ccccc3)n2)n[nH]1 lower than 50% or not?
Reply | 1

Ask | hey, is growth for COc1cc2cc(NCc3ccc(Cl)cc3)nc(C)c2cc1OC lower than 50% or not?
Reply | 0

Ask | hey, is growth for Cc1cnc(NC(=O)Nc2cc(Br)c(C)cc2OC[C@@H]2CNCCO2)cn1 lower than 50% or not?
Reply | 1

Ask | hey, is growth for O=C(NOCCO)c1ccc2cncn2c1Nc1ccc(I)cc1F lower than 50% or not?
Reply | 0
